Experiment: in vitro
Conditions: both, human, plasma
Outcome measure: remaining at 2 h, 2 μM (%)
Express the result in % but write the number alone.

>>> df
                                   molecule         outcome_measure  units_label  value_measured
0  COc1ccc(N(C)C(=O)[C@H](Cc2cc(F)cc(F)c2)NC(=O)CN2CCN(C(=O)Cc3c[nH]c4ccc(F)cc34)CC2=O)cc1 [F2-7f]  remaining at 2 h, 2 μM            %            86.9

Turning now to a further molecule:
Query block: Assign remaining at 2 h, 2 μM to the following record: CC(C)[N+](C)(CCOC(=O)C1c2ccccc2Oc2ccccc21)C(C)C [Propantheline bromide]
Result block: 0.1
